Test: Pharmacokinetics in moderate hepatic impairment vs matched normal subjects (Example A-13)
Settings: human, plasma, 400 mg, T1/2, Mean, Multiple Dose 400 mg QD, Moderate
quantity_kind: half-life

Lab book: half-life of COC(=O)[C@@H]1CC2=CC(=O)CC[C@]2(C)[C@@]23O[C@@H]2C[C@@]2(C)[C@@H](CC[C@@]24CCC(=O)O4)[C@H]13 noted as 8.07 h

###

Test: Pharmacokinetics in moderate hepatic impairment vs matched normal subjects (Example A-13);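 note: impaired subjects were Child-Pugh Class B with ascites, compared against healthy volunteers matched for sex, age, weight and smoking, blood sampled before and after dosing on Days 1 and 7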
Details: human, plasma, 400 mg, Cmax, Mean, Multiple Dose 400 mg QD, Moderate
quantity_kind: Cmax (µg/mL)
// return numeric value only (unit: µg/mL, not printed)

Lab book: Cmax of COC(=O)[C@@H]1CC2=CC(=O)CC[C@]2(C)[C@@]23O[C@@H]2C[C@@]2(C)[C@@H](CC[C@@]24CCC(=O)O4)[C@H]13 noted as 4.17
